- MEASURED_ON: rat GHS-R (GHS receptor) expressed on CHO-GHSR62 cells (rat, UniProt O08725 1-364)
- Sequence (O08725 whole entry): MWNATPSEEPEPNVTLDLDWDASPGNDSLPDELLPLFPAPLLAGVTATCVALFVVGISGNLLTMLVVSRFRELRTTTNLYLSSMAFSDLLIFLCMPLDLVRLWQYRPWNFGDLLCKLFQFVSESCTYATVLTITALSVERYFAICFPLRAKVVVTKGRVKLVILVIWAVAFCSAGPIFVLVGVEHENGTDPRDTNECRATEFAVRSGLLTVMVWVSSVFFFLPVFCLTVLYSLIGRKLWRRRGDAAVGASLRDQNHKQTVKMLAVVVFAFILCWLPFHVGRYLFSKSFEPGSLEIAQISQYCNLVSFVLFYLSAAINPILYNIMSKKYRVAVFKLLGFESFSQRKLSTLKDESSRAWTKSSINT
- TEST_SUMMARY: cell-based or functional assay
Square brackets hold non-standard residues; d marks the D form. Ends that are not written are not given here. * marks the point of attachment. Octyl = CCCCCCCC*
Reported Ca-releasing activity EC50 by item:
Enter your answer as a number in nM; do not include the unit.

Exercise: Quickly give me recorded Ca-releasing activity EC50 for GSS(Octyl)FLSP-NH2 (N-terminus assumed; SMILES CCCCCCCCOC[C@H](NC(=O)[C@H](CO)NC(=O)CN)C(=O)N[C@@H](Cc1ccccc1)C(=O)N[C@@H](CC(C)C)C(=O)N[C@@H](CO)C(=O)N1CCC[C@H]1C(N)=O) [[Ser^3(Octyl)]-Ghrelin (1-7)-amide]
Key: 5.8

We next turn to a different binder, shown below.
Exercise: Quickly give me recorded Ca-releasing activity EC50 for GSS(Octyl)[dF]LSP-NH2 [[Ser^3(Octyl),^DPhe^4]-Ghrelin (1-7)-amide]
Key: 2200
